assayTarget: P2X7 (Homo sapiens (Human), UniProt Q99572)
Sequence (Q99572 whole entry): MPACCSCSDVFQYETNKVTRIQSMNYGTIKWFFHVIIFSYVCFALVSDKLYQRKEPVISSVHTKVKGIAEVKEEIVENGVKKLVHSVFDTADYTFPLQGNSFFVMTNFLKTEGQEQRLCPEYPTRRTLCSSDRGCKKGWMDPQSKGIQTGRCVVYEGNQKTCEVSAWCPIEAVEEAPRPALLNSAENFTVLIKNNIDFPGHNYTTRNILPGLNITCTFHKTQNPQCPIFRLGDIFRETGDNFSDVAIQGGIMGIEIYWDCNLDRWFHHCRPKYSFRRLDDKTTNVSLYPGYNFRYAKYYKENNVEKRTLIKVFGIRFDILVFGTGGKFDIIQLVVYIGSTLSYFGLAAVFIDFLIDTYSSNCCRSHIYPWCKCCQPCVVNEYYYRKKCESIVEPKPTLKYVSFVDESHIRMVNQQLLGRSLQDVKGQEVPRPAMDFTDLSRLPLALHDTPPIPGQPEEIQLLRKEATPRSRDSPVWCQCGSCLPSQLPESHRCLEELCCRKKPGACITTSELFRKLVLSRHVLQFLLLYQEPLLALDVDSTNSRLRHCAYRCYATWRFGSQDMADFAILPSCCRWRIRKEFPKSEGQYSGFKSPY
assayOverview: P2X7 antagonism in human PBMCs (LPS + Bz-ATP induced IL-1β release, ELISA);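 also: PBMCs from donor human blood, with a further 1.5 h incubation of the cells in the assay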
Format: cell-based
runConditions: compound 1 μM, LPS 30 ng/ml, Bz-ATP 0.5 mM
propertyMeasured: PBMC 1 μM (% control)

| molecule | PBMC 1 μM (% control) |
| --- | --- |
| O=C(c1cccc(C(F)(F)F)c1Cl)N1CCc2c(nnn2-c2cnccn2)C1c1ccccc1 (stereo not shown) | 31.7 |

A. O=C(C1c2ncn(-c3ccccn3)c2CCN1C(=O)c1cccc(C(F)(F)F)c1Cl)N1CCC1 (stereo not shown)
B. CC(C)C1c2ncn(-c3cnccn3)c2CCN1C(=O)c1cccc(C(F)(F)F)c1Cl (stereo not shown)
C. Cn1nc2c(c1-c1ccccc1)CCN(C(=O)c1cccc(Cl)c1Cl)C2
Q: Provide the items ranked by increasing PBMC 1 μM (% control). Output spec: a listing of the labels in the requested order.
A: B, C, A

Numbers sourced from patent US9464084B2.
